Where do these numbers come from? They come from ChEMBL document CHEMBL1201862.

system: Paired box protein Pax-8 (Homo sapiens)
Sequence (Q06710 whole entry): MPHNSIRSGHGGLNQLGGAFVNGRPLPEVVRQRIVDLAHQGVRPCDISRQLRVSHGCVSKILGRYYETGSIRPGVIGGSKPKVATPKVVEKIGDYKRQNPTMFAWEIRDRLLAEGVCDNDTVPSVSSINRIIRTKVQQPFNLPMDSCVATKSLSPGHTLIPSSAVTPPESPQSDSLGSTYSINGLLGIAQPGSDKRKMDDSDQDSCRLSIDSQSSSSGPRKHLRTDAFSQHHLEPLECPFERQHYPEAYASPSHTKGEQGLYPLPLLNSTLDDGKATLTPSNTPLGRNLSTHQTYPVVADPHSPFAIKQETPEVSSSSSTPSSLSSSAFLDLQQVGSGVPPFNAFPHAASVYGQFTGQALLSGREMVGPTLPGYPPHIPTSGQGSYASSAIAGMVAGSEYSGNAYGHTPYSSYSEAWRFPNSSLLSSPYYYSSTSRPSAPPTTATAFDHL
experimental-details: inhibitors of PAX8-driven TPO luciferase reporter, dose response, RMG-I cells, cherry-pick (AID 687027);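 also: luciferase reporter driven by Pax8 target thyroperoxidase promoter measured by SteadyGlo luminescence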
Format: functional, cell-based
Calls of active or inactive are those of the source.
attribute-measured: AC50

O=C(C[C@H]1C[C@@H]2c3cc(NS(=O)(=O)c4ccc(F)cc4)ccc3O[C@@H]2[C@@H](CO)O1)NCc1ccc(-c2ccccc2)cc1 = 7.31 µM (active)

Answer for every listed entry: what is its AC50? The entries follow.
1. Brc1ccc(-n2cc(-c3ccccc3)c3c(NN4CCOCC4)ncnc32)cc1
2. C[C@H](CO)N1C[C@H](C)[C@H](CN(C)S(=O)(=O)c2cccs2)OCCCC[C@H](C)Oc2ccc(NC(=O)NC3CCCCC3)cc2C1=O
3. COc1ccc(C#Cc2ccc([C@H]3[C@@H](CO)N4CCCCN(C(=O)Nc5cccc(F)c5)C[C@H]34)cc2)cc1
4. Cc1cccc(-c2ccc([C@H]3[C@H](CO)N4CCCCN(S(=O)(=O)c5ccccc5C)C[C@@H]34)cc2)c1
5. COc1ccccc1-c1ccc2c(c1)[C@@H]1[C@@H](CCN1S(=O)(=O)c1ccccc1F)[C@H](CO)N2

[out]
1: 35.8 µM (active); 2: 10.7 µM (active); 3: 10.9 µM (active); 4: 11.4 µM (active); 5: 6.87 µM (active)

###

system: Cytochrome P450 3A4 (Homo sapiens, UniProt P08684);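 also: CYP3A4 tested as one member of a cytochrome P450 panel screen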
Sequence (P08684 whole entry): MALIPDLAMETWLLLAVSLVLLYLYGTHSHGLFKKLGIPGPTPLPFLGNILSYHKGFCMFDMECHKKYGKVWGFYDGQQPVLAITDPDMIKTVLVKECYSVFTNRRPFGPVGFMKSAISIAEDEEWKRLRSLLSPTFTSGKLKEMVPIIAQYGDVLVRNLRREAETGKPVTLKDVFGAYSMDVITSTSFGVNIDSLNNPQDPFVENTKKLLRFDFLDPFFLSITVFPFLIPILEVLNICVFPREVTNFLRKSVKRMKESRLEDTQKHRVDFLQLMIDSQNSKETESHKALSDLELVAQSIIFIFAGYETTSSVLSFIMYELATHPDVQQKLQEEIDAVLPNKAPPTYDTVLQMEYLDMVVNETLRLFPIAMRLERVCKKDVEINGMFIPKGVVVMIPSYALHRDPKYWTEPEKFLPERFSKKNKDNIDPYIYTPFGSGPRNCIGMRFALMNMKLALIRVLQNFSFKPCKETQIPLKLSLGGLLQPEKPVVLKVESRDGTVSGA
Kindly state AC50 for each of the entries shown.

Answer for every listed entry: what is its AC50? The entries follow.
1. CS(=O)(=O)Nc1ccc([N+](=O)[O-])cc1OC1CCCCC1
2. CCn1c(C)nc2c1C(=O)c1ccccc1C2=O
3. O=C(Nn1cc(C(=O)N2CCN(c3ccccc3F)CC2)c2ccccc2c1=O)c1cnccn1
4. CC(C)(C)CC(C)(C)c1cc(O)c(O)c(CN2CCCCC2)c1

[out]
1. 20 µM (inconclusive)
2. 20 µM (inconclusive)
3. 28.2 µM (inconclusive)
4. 3.98 µM (inconclusive)

[in] Note down AC50 recorded for CCOC(=O)C1=C(c2ccccc2)N=c2s/c(=C\c3ccco3)c(=O)n2C1c1cccs1 (stereo not given)
[out] 22.4 µM (inconclusive)

###

Kindly state EC50 for each of the entries shown.
system: Peroxisome proliferator-activated receptor gamma/Nuclear receptor coactivator 1 (Homo sapiens, UniProt P37231);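 also: agonist potency as compounds enhance coactivator SRC-1 recruitment to PPARgamma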
Sequence (P37231 whole entry): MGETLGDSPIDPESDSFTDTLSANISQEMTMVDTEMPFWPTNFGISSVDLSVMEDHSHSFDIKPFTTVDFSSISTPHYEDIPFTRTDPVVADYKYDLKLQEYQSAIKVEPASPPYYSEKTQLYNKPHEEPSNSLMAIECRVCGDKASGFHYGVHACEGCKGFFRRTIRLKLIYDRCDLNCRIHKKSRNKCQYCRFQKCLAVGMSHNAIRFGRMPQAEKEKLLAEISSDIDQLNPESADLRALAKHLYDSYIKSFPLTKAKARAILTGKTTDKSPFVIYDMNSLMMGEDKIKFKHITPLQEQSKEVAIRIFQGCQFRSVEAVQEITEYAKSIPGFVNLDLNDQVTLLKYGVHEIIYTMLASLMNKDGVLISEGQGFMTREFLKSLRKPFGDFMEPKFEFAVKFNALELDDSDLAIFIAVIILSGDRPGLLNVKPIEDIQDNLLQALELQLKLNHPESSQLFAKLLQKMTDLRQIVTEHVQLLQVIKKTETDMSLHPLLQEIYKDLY
Sequence (Q15788 whole entry, further chain): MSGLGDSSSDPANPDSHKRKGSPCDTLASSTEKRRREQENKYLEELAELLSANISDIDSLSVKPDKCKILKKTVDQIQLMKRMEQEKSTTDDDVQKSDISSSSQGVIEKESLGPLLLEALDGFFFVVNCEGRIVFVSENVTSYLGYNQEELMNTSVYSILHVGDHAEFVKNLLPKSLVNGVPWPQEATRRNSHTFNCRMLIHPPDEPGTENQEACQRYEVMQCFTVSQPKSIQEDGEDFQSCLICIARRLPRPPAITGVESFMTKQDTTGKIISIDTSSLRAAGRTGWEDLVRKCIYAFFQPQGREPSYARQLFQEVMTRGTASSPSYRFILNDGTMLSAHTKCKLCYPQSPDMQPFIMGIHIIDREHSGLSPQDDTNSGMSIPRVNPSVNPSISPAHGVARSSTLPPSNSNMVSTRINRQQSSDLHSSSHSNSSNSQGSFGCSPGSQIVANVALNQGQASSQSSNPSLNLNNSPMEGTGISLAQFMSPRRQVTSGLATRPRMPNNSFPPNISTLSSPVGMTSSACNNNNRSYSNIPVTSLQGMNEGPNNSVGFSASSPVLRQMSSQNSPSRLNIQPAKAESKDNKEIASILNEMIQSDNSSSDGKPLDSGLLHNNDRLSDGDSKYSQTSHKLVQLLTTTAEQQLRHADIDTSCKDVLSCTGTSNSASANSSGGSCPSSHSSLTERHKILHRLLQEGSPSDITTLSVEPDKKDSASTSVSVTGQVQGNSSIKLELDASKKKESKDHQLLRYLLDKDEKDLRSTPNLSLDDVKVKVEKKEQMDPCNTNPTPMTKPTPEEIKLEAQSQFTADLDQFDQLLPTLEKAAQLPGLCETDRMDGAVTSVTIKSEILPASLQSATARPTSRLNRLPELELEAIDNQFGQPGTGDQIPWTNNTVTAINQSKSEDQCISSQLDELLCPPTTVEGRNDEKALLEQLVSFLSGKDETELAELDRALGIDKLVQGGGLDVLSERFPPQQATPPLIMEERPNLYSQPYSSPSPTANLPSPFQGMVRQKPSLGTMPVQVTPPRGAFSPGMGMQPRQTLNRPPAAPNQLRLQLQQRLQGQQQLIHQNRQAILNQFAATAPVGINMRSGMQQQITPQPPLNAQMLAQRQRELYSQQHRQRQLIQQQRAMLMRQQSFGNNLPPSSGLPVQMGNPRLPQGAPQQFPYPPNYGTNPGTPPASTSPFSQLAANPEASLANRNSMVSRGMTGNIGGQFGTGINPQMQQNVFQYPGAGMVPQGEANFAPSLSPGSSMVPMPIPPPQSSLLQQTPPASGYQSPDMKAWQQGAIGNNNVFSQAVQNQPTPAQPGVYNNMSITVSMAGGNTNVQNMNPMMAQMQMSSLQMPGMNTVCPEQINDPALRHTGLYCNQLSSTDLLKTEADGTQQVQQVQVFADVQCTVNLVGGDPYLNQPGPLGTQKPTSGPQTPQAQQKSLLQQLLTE
Assay type: functional

CCOC(=O)c1sc(NC(=O)CSc2nnnn2-c2ccc(C)c(C)c2)nc1C = > 79.4 µM (not active)
CCN(CC)CCN(Cc1cc2cc3c(cc2[nH]c1=O)OCCO3)C(=O)NC1CCCCC1 = > 79.4 µM (not active)

Answer for every listed entry: what is its EC50? The entries follow.
1. CCOC(=O)c1s/c(=N\C(=O)c2cccc(OC)c2)n(C)c1C
2. Fc1ccccc1CSc1nc2ncc(Br)cc2[nH]1

[out]
1. 11 µM (not active)
2. 36.8 µM (not active)

###

System: Streptococcus sp. 'group A'
experimental-details: growth inhibition of control SK(-) GAS strain, dose response, counter-screen for streptokinase expression inhibitor project, luminescence, kanamycin, BacTiterGlo, confirmation (AID 1900)
Assay type: functional, organism-based
The source made the active and inactive calls.
attribute-measured: EC50

Check out these entries, answers already filled in.
Cc1ccc(CNC(=O)c2ccc([N+](=O)[O-])o2)cc1 = 2.42 µM (active)
Cc1c(Cl)cccc1N=C(S)NCCC(c1ccccc1)c1ccccc1 = 8.52 µM (active)

Answer for every listed entry: what is its EC50? The entries follow.
1. CCOC(=O)c1cnc(-n2nc(C)cc2C)nc1NC(C)c1ccccc1 (configuration not stated)
2. CCC/C=C(\CCC)C(NS(=O)(=O)c1ccc(C(F)(F)F)cc1)c1ccccc1 (configuration not stated)
3. CCCCCn1cc[n+](C2=C([N-]S(=O)(=O)c3ccc(Br)cc3)C(=O)c3ccccc3C2=O)c1
4. COc1ccc(/C=N\NC(=O)c2cc(O)c(O)c(O)c2)cc1COc1ccc(C(=O)OCC(C)C)cc1

[out]
1. 5.04 µM (active)
2. 2.73 µM (active)
3. 4.17 µM (active)
4. 6.26 µM (active)

[in] Note down EC50 recorded for CC(C)c1ccc2c(c1)C1(NN=C(c3ccccc3)S1)C(=O)N2 (configuration not stated)
[out] < 0.06 µM (active)

###

experimental-details: Luminescence Cell-Based Dose Retest to Confirm Inhibitors of Cancer Stem Cells. [Related pubchem assays (depositor defined):AID2717, AID2721]
Assay type: functional
condition: Homo sapiens
The source made the active and inactive calls.
attribute-measured: AC50

CC1CCN(c2nc(-c3cccnc3)nc3scc(-c4ccccc4)c23)CC1 = 1360 nM (active)
COC(=O)c1cccc(Nc2cc(C)nc(-c3ccccc3O)n2)c1 = 1750 nM (active)
COc1ccc(-c2cn(CCc3c[nH]c4ccccc34)nn2)cc1 = 2860 nM (active)
CN1/C(=C\C(=O)COc2ccc3c(c2)OCO3)C(C)(C)c2ccccc21 = 4100 nM (active)
O=C(N[C@H]1C/C=C\C[C@@H](CC(=O)N(CCO)Cc2ccccc2)C(=O)NC[C@H](c2ccccc2)OC1=O)OCC1c2ccccc2-c2ccccc21 = 2240 nM (active)
CCCN(CCC)CCNC(=O)c1cc2c(-c3ccc(Cl)cc3)nn(C)c2s1 = 3810 nM (active)

// next entry
[in] Note down AC50 recorded for `Cc1ccc(C)c(Cc2c(C)nc3c(C(=O)NCc4ccc5c(c4)OCO5)cnn3c2C)c1`
[out] 4980 nM (active)

###

experimental-details: inhibitors of intracellular T. cruzi replication, confirmation, NIH3T3 host cells, beta-gal luminescence (AID 2044);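 also: intracellular parasites grown in NIH/3T3 mouse fibroblasts as host cells; luminescent beta-galactosidase reporter signal from transgenic T. cruzi replicating inside host cells; inhibitors lower the luminescence signal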
Type: functional, cell-based
Active and inactive are the calls of the source.
Kindly state EC50 for each of the entries shown.

Check out these entries, answers already filled in.
O=C1[C@@H]2Cc3c([nH]c4ccccc34)C(c3cccc([N+](=O)[O-])c3)N2C(=O)CN1C1CCN(Cc2ccccc2)CC1 (some centres undefined) = 1800 nM (active)
CCOC(=O)c1cnc(-n2nc(C)cc2C)nc1NC(C)c1ccccc1 (centres undefined) = 1460 nM (active)
O=C(NNC(=O)c1cccnc1SCc1cccc([N+](=O)[O-])c1)c1ccccn1 = 994 nM (active)
Cc1cc(C)n(-c2nc(NCCC(C)C)c3c4c(sc3n2)COC(C)(C)C4)n1 = 1640 nM (active)
Cc1nc2c(ccc3nc(NC(=O)c4ccc5c(c4)OCCO5)sc32)s1 = 3070 nM (active)
O=C(C[n+]1c2n(c3ccc(C(F)(F)F)cc31)CCCCC2)c1ccc2c(c1)OCCO2 = 1300 nM (active)
CCOC(=O)c1sc2c(c1C)c(=O)n(Cc1ccccc1)c(=O)n2CCN(C)C = < 100 nM (active)
CN1/C(=C\C(=O)COc2ccc3c(c2)OCO3)C(C)(C)c2ccccc21 = 2750 nM (active)

[in] Note down EC50 recorded for `Cc1ccc(Nc2cc(C)nc(NCc3ccccc3)n2)cc1`
[out] 255 nM (active)

###

Recorded IC50 values (Glyceraldehyde-3-phosphate dehydrogenase (Homo sapiens, UniProt P04406)) are given below.

Check out these entries, answers already filled in.
CCCCCCCCC#CC#CCCCC(=O)O = > 100 µM (not active)
O=C(O)c1cc(NS(=O)(=O)c2cccc3cccnc23)ccc1O = > 100 µM (not active)
O=C(Nc1ccc2c(c1)C1C=CCC1C(C(=O)O)N2)c1ccc(Cl)cc1Cl (configuration not stated) = > 100 µM (not active)

Answer for every listed entry: what is its IC50? The entries follow.
1. O=C(NCCCO)c1cc(-c2ccc(Cl)cc2Cl)n[nH]1
2. CCCCOc1ccc(-c2cc(C(=O)OC)[nH]n2)cc1
3. O=C(c1cc(-c2ccc(Cl)cc2Cl)n[nH]1)N1CCCCC1
4. COC(=O)c1cc(-c2cc(F)c(F)cc2F)n[nH]1

[out]
["> 10 µM (inconclusive)", "> 100 µM (not active)", "> 100 µM (not active)", "> 10 µM (inconclusive)"]

###

Kindly state IC50 for each of the entries shown.
system: Genome polyprotein (dengue virus type 2)
experimental-details: Dengue-2 NS5 methyltransferase inhibitors, primary screen, biochemical, confirmation dose response (AID 588689)
Format: functional
Active and inactive are the calls of the source.

O=S(=O)(O)c1cc(O)c2cc(Nc3ccccc3)ccc2c1 = 19.4 µM (active)
O=[N+]([O-])c1c(Nc2ccccc2O)cc(Cl)c2nonc12 = 9.7 µM (active)
O=C(O)CN1C(=O)/C(=C\c2cc(Br)ccc2OCc2ccccc2F)SC1=S = 33.1 µM (active)

Answer for every listed entry: what is its IC50? The entries follow.
1. CCOC(=O)c1c(/N=C/c2cccc([N+](=O)[O-])c2O)sc(C)c1C
2. Nc1nc2ncc(C(=O)c3cc(Cl)cc(Cl)c3O)cc2s1
3. O=C1Oc2ccccc2C(=O)/C1=C/c1ccccc1O

[out]
1. 77.1 µM (active)
2. > 100 µM (active)
3. 25.2 µM (active)
